// data source = PubChem BioAssay (Tox21)

Target entity: Cytochrome P450 2C9 (Homo sapiens) (UniProt P11712)
Sequence (P11712 whole entry, looked up): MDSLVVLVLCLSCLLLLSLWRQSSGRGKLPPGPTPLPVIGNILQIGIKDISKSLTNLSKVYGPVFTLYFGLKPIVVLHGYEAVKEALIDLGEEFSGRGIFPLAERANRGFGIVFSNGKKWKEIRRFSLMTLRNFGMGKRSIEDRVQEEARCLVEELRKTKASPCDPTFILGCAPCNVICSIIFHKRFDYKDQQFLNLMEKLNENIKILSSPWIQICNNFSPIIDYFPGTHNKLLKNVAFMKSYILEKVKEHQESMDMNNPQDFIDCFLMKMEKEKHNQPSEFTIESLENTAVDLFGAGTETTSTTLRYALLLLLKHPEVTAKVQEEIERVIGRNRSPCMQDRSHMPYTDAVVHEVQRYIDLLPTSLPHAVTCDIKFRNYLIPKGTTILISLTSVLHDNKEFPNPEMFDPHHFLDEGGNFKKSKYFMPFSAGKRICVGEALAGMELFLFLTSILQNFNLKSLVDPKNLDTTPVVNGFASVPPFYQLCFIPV
Test description: Cytochrome P450 Family 2 Subfamily C Member 9 (CYP2C9) small molecule antagonists: luciferase reporter qHTS assay (AID 1671198); note: nearly all actives have a fitted effect of over 50% in size
Condition notes: P450-Glo CYP2C9 enzyme assay, luciferin luminescence; series mostly up to 115 µM
Results filed as inconclusive are left out. The source made the active and inactive calls. Calls come from the whole dose curve; as a rule, active = well fitted inhibition curve with a large enough effect in the repeat runs; inconclusive = weak or mixed curves; inactive = no such curve, though single readings can be large or run the other way.
Outcome (select one): active, inactive

Test call for this compound, please: `CCCCc1ccc2cccc(S(=O)(=O)O)c2c1`
active

Test call for this compound, please: C#CC(C)(O)CC(C)C (stereo unspecified)
inactive

Test call for this compound, please: `CC1=CC(=O)CCC1`
inactive

Test call for this compound, please: `COc1cc(CCC(C)=O)ccc1O`
inactive

Test call for this compound, please: `CCCCCCOC(=O)CC(CC(=O)OCCCCCC)(OC(=O)CCC)C(=O)OCCCCCC`
active

Test call for this compound, please: `O=C(O)/C=C/c1ccc(Cn2ccnc2)cc1`
active

Test call for this compound, please: `C=CC(=O)N1CCOCC1`
inactive

Test call for this compound, please: `CSc1nc(NC2CC2)nc(NC(C)(C)C)n1`
active

Test call for this compound, please: `C=C(C)C(=O)NCCCN(C)C`
inactive

Test call for this compound, please: `CC(C)COC(=O)c1ccccc1O`
inactive

Test call for this compound, please: `O=C1OC(=O)c2cc([N+](=O)[O-])ccc21`
inactive

Test call for this compound, please: NS(=O)(=O)c1cc(C2(O)NC(=O)c3ccccc32)ccc1Cl (stereo unspecified)
inactive

Test call for this compound, please: C=CCOCC(O)CS(=O)(=O)O (stereo unspecified)
inactive

Test call for this compound, please: `C[C@H]1O[C@@H](n2cc(F)c(=O)[nH]c2=O)[C@H](O)[C@@H]1O`
inactive

Test call for this compound, please: NC(=O)CCCCC1CCSS1 (stereo unspecified)
inactive

Test call for this compound, please: `CC(C)(C)C(=O)/C=C/c1ccc(Cl)cc1`
active

Test call for this compound, please: `CCCCCCC(=O)OCC`
active

Test call for this compound, please: CC(O)CN(CCCN(C)C)CCCN(C)C (stereo unspecified)
inactive

Test call for this compound, please: CCCCCN(CCCCC)C(=O)C(CCC(=O)O)NC(=O)c1ccc(Cl)c(Cl)c1 (stereo unspecified)
active

Test call for this compound, please: CC(C)CCCC(C)NCCC(C)C (stereo unspecified)
inactive

Test call for this compound, please: COC(=O)C1=C(C)NC(C)=C(C(=O)OCC(C)=O)C1c1ccccc1[N+](=O)[O-] (stereo unspecified)
active

----------
Target entity: Cytochrome P450 1A2 (Homo sapiens) (UniProt P05177)
Sequence (P05177 whole entry, looked up): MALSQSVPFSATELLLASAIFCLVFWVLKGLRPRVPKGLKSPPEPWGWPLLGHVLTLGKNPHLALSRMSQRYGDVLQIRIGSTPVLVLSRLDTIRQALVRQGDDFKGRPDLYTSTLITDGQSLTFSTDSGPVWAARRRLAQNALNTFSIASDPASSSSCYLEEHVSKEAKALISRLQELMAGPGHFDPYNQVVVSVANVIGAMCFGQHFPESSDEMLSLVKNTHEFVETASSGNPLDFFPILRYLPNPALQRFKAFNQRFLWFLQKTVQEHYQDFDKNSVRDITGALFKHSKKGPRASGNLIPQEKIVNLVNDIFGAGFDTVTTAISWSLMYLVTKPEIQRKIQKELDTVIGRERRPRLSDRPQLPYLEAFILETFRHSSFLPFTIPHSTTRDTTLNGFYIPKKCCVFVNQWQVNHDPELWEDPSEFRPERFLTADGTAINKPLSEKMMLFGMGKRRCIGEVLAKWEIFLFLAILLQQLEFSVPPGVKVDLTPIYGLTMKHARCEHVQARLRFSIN
Test description: Cytochrome P450 Family 1 Subfamily A Member 2 (CYP1A2) small molecule antagonists: luciferase reporter qHTS assay (AID 1671199); note: nearly all actives have a fitted effect of over 50% in size
Condition notes: P450-Glo CYP1A2 enzyme, luciferin luminescence, 1 h; series mostly up to 53 µM
Records with an inconclusive call do not appear. Active and inactive are the calls of the source. Calls come from the whole dose curve; as a rule, active = well fitted inhibition curve with a large enough effect in the repeat runs; inconclusive = weak or mixed curves; inactive = no such curve, though single readings can be large or run the other way.
Outcome (select one): active, inactive

Test call for this compound, please: `Cc1cc(C)c(NC(=O)CN(CC(=O)O)CC(=O)O)c(C)c1Br`
inactive

Test call for this compound, please: CC(C)CCCC(C)CCCC(C)CCCCC(C)CCCC(C)CCCC(C)C (configuration not stated)
inactive

Test call for this compound, please: `NCCN1CCNC1=O`
inactive

Test call for this compound, please: `CCCCCCCCN(C)CCCCCCCC`
inactive

Test call for this compound, please: `COCCOC(=O)CC#N`
inactive

Test call for this compound, please: `O=C(O)CCNC(=O)c1ccc(N=Nc2ccc(O)c(C(=O)O)c2)cc1`
inactive

Test call for this compound, please: C=C(C)C1CC=C(C)C(O)C1 (configuration not stated)
active

Test call for this compound, please: CCC(C(=O)NC(N)=O)c1ccccc1 (configuration not stated)
active

Test call for this compound, please: `CCCCCCOC(=O)CC(CC(=O)OCCCCCC)(OC(=O)CCC)C(=O)OCCCCCC`
inactive

Test call for this compound, please: `Oc1ccc2c(c1)OC[C@@H](N1CCC(O)(c3ccc(F)cc3)CC1)[C@H]2O`
active

Test call for this compound, please: `OCCN1C[C@H](O)[C@@H](O)[C@H](O)[C@H]1CO`
inactive

Test call for this compound, please: CC12CCC(CC1=O)C2(C)C (configuration not stated)
inactive

----------
Test description: qHTS assay to identify small molecule HDAC inhibitors (AID 1259364);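 note: wild-type HCT-116 cells with endogenous class I/II HDAC activity; nearly all actives have a fitted effect of over 45% in size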
Condition notes: HCT-116 HDAC-Glo I/II luminescence, 2 h; series mostly up to 92.4 µM
Results filed as inconclusive are left out. The source made the active and inactive calls. Calls come from the whole dose curve; as a rule, active = well fitted inhibition curve with a large enough effect in the repeat runs; inconclusive = weak or mixed curves; inactive = flat fitted curve, though single readings scatter.
Outcome (select one): active, inactive

Test call for this compound, please: CCCCC1CCCCC(=O)O1 (stereo not given)
inactive

Test call for this compound, please: `COc1nc(C)nc(N)n1`
inactive

Test call for this compound, please: `COc1cc(O)cc(O)c1`
inactive

Test call for this compound, please: `COc1cccc(OC)c1`
inactive

Test call for this compound, please: C1C2OC2C2C1C1CC2C2OC12 (stereo not given)
inactive

Test call for this compound, please: `COC(=O)c1ccc(C(=O)OC)c(C(=O)OC)c1`
inactive

Test call for this compound, please: `CC(=O)OC(C)(C)C`
inactive

Test call for this compound, please: `COc1ccc(N=[N+]([O-])c2ccc(OC)cc2)cc1`
active

Test call for this compound, please: C=C(C)C(=O)OCCC(C)OC(=O)C(=C)C (stereo not given)
inactive

Test call for this compound, please: `O=[N+]([O-])c1ccc(CCO)cc1`
inactive

Test call for this compound, please: `CCN(CC)S(=O)(=O)c1ccc(C(=O)O)cc1`
inactive

Test call for this compound, please: `CC(C)c1cccc(C(C)C)c1N`
inactive

Test call for this compound, please: `NC(=O)c1c(Cl)cccc1Cl`
inactive

Test call for this compound, please: `O=c1[nH]c(=O)n([C@H]2O[C@H](CO)[C@@H](O)[C@@H]2O)cc1/C=C\Br`
inactive

Test call for this compound, please: `Nc1nc(F)nc2c1ncn2[C@@H]1O[C@H](CO)[C@@H](O)[C@@H]1O`
inactive

Test call for this compound, please: CC(CCO)CCCC(C)(C)O (stereo not given)
inactive

Test call for this compound, please: `COc1ccc2cc(C=O)ccc2c1`
inactive

Test call for this compound, please: `O=[N+]([O-])c1ccc(Oc2ccc([N+](=O)[O-])cc2)cc1`
inactive

Test call for this compound, please: `C[C@H](O)C(=O)Nc1c(I)c(C(=O)NC(CO)CO)c(I)c(C(=O)NC(CO)CO)c1I`
inactive

Test call for this compound, please: `CCCCCCOC(=O)CC(CC(=O)OCCCCCC)(OC(=O)CCC)C(=O)OCCCCCC`
inactive

Test call for this compound, please: `OCC(CO)(CO)COCC(CO)(CO)CO`
inactive

Test call for this compound, please: `C1=C\CC/C=C\CC/C=C\CC/1`
inactive

Test call for this compound, please: `CC(=O)N[C@@H](CCC(N)=O)C(=O)O`
inactive

Test call for this compound, please: `CCCOc1ccccc1-c1nc2n[nH]nc2c(=O)[nH]1`
inactive

Test call for this compound, please: `N#CCN(CC#N)CCN(CC#N)CC#N`
inactive

----------
Target entity: Cytochrome P450 2C19 (Homo sapiens) (UniProt P33261)
Sequence (P33261 whole entry, looked up): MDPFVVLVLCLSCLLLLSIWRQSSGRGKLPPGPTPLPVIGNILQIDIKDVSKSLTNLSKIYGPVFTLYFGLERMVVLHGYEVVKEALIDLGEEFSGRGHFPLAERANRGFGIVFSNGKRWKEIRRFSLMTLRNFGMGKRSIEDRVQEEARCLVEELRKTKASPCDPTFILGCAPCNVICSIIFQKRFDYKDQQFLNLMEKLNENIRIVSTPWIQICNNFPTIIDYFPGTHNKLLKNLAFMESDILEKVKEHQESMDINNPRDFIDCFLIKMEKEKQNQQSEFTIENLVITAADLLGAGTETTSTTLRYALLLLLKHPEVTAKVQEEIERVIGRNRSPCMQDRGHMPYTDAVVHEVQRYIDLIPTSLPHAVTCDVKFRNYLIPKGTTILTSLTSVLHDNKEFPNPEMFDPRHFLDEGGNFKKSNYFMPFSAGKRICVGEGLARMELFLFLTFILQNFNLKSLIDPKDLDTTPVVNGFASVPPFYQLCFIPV
Test description: Cytochrome P450 Family 2 Subfamily C Member 19 (CYP2C19) small molecule antagonists: luciferase reporter qHTS assay (AID 1671197); note: nearly all actives have a fitted effect of over 65% in size
Condition notes: P450-Glo CYP2C19 enzyme, luciferin luminescence, 1 h; series mostly up to 115 µM
Results filed as inconclusive are left out. Active and inactive are the calls of the source. The call rests on the fitted dose curve; in most records, active means well fitted inhibition curve with a large enough effect in the repeat runs; inconclusive means weak or mixed curves; inactive means no such curve, though single readings can be large or run the other way.
Outcome (select one): active, inactive

Test call for this compound, please: Cc1c(F)cc2c(=O)c(C(=O)O)cn3c2c1CCC3C (stereo not drawn)
inactive

Test call for this compound, please: CC(=O)NC(Cc1ccccc1)C(=O)O (stereo not drawn)
inactive

Test call for this compound, please: NC(CS)C(=O)O (stereo not drawn)
inactive

Test call for this compound, please: `OC[C@H]1O[C@@H]2O[C@H]3[C@H](O)[C@@H](O)[C@@H](O[C@H]4[C@H](O)[C@@H](O)[C@@H](O[C@H]5[C@H](O)[C@@H](O)[C@@H](O[C@H]6[C@H](O)[C@@H](O)[C@@H](O[C@H]7[C@H](O)[C@@H](O)[C@@H](O[C@H]8[C@H](O)[C@@H](O)[C@@H](O[C@H]9[C@H](O)[C@@H](O)[C@@H](O[C@H]1[C@H](O)[C@H]2O)O[C@@H]9CO)O[C@@H]8CO)O[C@@H]7CO)O[C@@H]6CO)O[C@@H]5CO)O[C@@H]4CO)O[C@@H]3CO`
inactive

Test call for this compound, please: `NC(=O)Nc1nc2ccccc2[nH]1`
active

Test call for this compound, please: `COC(=O)CCCC(=O)O`
inactive

Test call for this compound, please: `C(=C(c1ccccc1)c1ccccc1)c1ccccc1`
active

Test call for this compound, please: `CC(C)[C@H](N)C(=O)OCCOCn1cnc2c(=O)[nH]c(N)nc21`
inactive

Test call for this compound, please: CCN1CCCC1CNC(=O)c1cc(S(N)(=O)=O)ccc1OC (stereo not drawn)
inactive

Test call for this compound, please: CCCCCCCCCCCCCCCCCCOCC(O)CO (stereo not drawn)
inactive

Test call for this compound, please: `O=C1OC(=O)c2cc([N+](=O)[O-])ccc21`
inactive

Test call for this compound, please: `N#CCN(CC#N)CCN(CC#N)CC#N`
inactive

Test call for this compound, please: `O=C(O)c1ccccc1-c1ccc(C(F)(F)F)cc1`
inactive
